- Test system: BDF1 mice, Adenocarcinoma 755 s.c., tumor weight T/C
- Test details: NCI In Vivo Anticancer Drug Screen. Data for tumor model Adenocarcinoma 755 (subcutaneous) in B6D2F1 (BDF1) mice
- Measurement setup: endpoint: mean tumor weight; dose: 12.0 mg/kg/injection; schedule: Q01DX011 (ip); vehicle: methylcellulose (MC); higher = larger tumour
Collected T/C values appear next to each entry.

Compound	T/C
CN(C)/N=N/c1nc[nH]c1C(N)=O	50 % of control
CCc1nc(N)nc(N)c1-c1ccc(Cl)cc1	49 % of control
CCC(C)C(N=C1N=CNC2=NC=NC12)C(=O)O (centres undefined)	108 % of control
S=c1nc[nH]c2c1ncn2C1CCCC1	22 % of control
